Documented log10(AC50) across a set of compounds
target_of_assay: APOL1 G2 (Homo sapiens, UniProt O14791, DEL388-389)
Construct: expressed in transfected cells; host or cells: HEK293 T-REx clonal lines: HEK T-REx/GCaMP6f/APOL1 G2 K6.3 in A1, HEK293/T-REx APOL1 G2/clone #2 in A2
protocol_notes: APOL1 calcium transport inhibition assay (GCaMP6f calcium influx, FLIPR) in HEK T-REx/GCaMP6f/APOL1 G2 K6.3 cells
Type: cell-based
particulars: inhibition of APOL1-mediated calcium influx; geometric mean of at least 2 assay runs, † = single assay run (technical duplicate)
Source text: A HEK293 clonal cell line was generated to stably express GCaMP6f, a genetically encoded calcium indicator, and inducibly express APOL1 G2 (HEK T-REx/GCaMP6f/APOL1 G2 K6.3). […]
measured_quantity: log10(AC50) (log10 of the value in nM)

> print(dat)
                                   compound  measured.quantity  endpoint.result
1  CN(c1ccc(OCC2CN(CCc3cccc(Cl)c3)CCCO2)cc1)S(C)(=O)=O (stereo not shown) [Compound 10]        log10(AC50)             3.24
2  CN(c1ccc(OC[C@@H](O)CN2CCC(c3cccc(Cl)c3)C2(C)C)cc1)S(C)(=O)=O (stereo partly shown) [Compound 68]        log10(AC50)             2.96
3  C[C@@H]1CN(CCc2cccc(Cl)c2)C[C@H]1COc1ccc(S(C)(=O)=O)cc1 (racemic) [Compound 52]        log10(AC50)             1.90
4  C[C@@H]1CN(CCc2cccc(Cl)c2)C[C@@H]1COc1ccc(S(C)(=O)=O)cc1 (single isomer, unassigned) [Compound 151]        log10(AC50)             2.49
5  Cc1c(C#N)cc(Cl)cc1CCN1C[C@@H](COc2ccc(S(C)(=O)=O)cc2)C[C@H]1C        log10(AC50)             2.87
6  CN(c1ccc(OC[C@H](O)CN2CCC(c3cccc(Cl)c3)C2)cc1)S(C)(=O)=O (single isomer, unassigned) [Compound 79]        log10(AC50)             3.11
7  CN(c1ccc(OCC(C)(O)CNCCc2cccc(Cl)c2)cc1)S(C)(=O)=O (single isomer, unassigned) [Compound 103]        log10(AC50)             4.04

----------
target_of_assay: APOL1 G2 (Homo sapiens, UniProt O14791, DEL388-389)
Sequence (O14791 with tags, fused parts or gaps DEL388-389): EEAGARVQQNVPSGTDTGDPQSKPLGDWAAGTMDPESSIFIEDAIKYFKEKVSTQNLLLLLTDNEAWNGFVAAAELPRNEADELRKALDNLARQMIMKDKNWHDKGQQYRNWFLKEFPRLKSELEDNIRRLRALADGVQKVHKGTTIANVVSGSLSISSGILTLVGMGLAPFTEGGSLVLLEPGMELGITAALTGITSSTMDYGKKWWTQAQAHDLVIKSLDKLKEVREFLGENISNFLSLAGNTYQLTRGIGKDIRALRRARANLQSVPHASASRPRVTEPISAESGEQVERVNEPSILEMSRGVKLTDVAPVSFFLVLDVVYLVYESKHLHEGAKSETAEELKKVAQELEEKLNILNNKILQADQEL
protocol_notes: Rescue of HEK293 cell death caused by overexpression of APOL1 (CellTiter-Glo luminescence), HEK293/T-REx APOL1 G2/clone #2
particulars: reversal of cell death caused by overexpression of APOL1; geometric mean of at least 2 assay runs, † = single assay run (technical duplicate)
pEC50: −log10 of the molar value.
measured_quantity: pEC50

> print(dat)
                                    compound  relation.sign  endpoint.result
 1  CC1CC(COc2ccc(S(C)(=O)=O)cc2)CN1CCc1cccc(C#N)c1 (single isomer, unassigned) [Compound 137]              =             5.34
 2  CS(=O)(=O)c1ccc(OC[C@H]2CCCN(CC(O)c3cccc(Cl)c3)C2)cc1 (some centres unmarked) [Compound 17]              =             6.17
 3  C[C@@H]1CN(CC(O)c2cccc(C#N)c2)C[C@H]1COc1ccc(S(C)(=O)=O)cc1 (single isomer, unassigned) [Compound 128]              =             6.44
 4  CN(c1ccc(OC[C@@H]2CCN(CCc3cccc(Cl)c3)C2)cc1)S(C)(=O)=O              =             5.69
 5  CC1CC(COc2ccc(S(C)(=O)=O)cc2)CN1CCc1cccc(C#N)c1 (single isomer, unassigned) [Compound 135]              =             5.24
 6  CC1CC(COc2ccc(S(C)(=O)=O)cc2)CN1CCc1cccc(C#N)c1 (single isomer, unassigned) [Compound 136]              =             6.96
 7  C[C@@H]1C[C@H](COc2ccc(S(C)(=O)=O)cc2)CN1CCc1cc(C#N)cc(C#N)c1              =             7.36
 8  C[C@@]1(O)CN(CCc2cccc(Cl)c2)C[C@@H]1COc1ccc(S(C)(=O)=O)cc1 (single isomer, unassigned)              <             4.71
 9  CN(c1ccc(OCC(C)(O)CNCCc2cccc(Cl)c2)cc1)S(C)(=O)=O (single isomer, unassigned) [Compound 103]              <             4.52
10  CN=S(C)(=O)c1ccc(OC[C@@H]2CN(CCc3cccc(C#N)c3)C[C@H]2C)cc1 (single isomer, unassigned) [Compound 171]              =             6.84
11  CS(=O)(=O)c1ccc(OCC2CCCCN(CCc3cccc(Cl)c3)C2)cc1 (single isomer, unassigned) [Compound 2]              =             5.53
12  C[C@H]1CN(CCc2cccc(Cl)c2)C[C@@H]1COc1ccc(S(=O)(=O)CCO)cc1 (single isomer, unassigned)              =             7.53
13  CN=S(C)(=O)c1ccc(OC[C@@H]2CN(CCc3cccc(C#N)c3)C[C@H]2C)cc1 (single isomer, unassigned) [Compound 170]              =             7.12
14  COC(CN1CCC[C@@H](COc2ccc(S(C)(=O)=O)cc2)C1)c1cccc(Cl)c1 (single isomer, unassigned) [Compound 25]              =             6.00
